What follows is a record of pIC50 for Aurora B (Homo sapiens).
pIC50: −log10 of the molar value. Structures can show the parent of a compound that is named as a salt.
measured attribute: pIC50

molecule="O=C(c1cccc(F)c1Cl)N1CCN(Cc2cccc(Nc3nccs3)n2)CC1 [Example 9]" recorded_measurement=6.12
molecule="O=C(c1cccc(C(F)(F)F)c1F)N1C[C@H]2C[C@@H]1CN2Cc1cncc(Nc2cc[nH]n2)n1 [Example 48]" recorded_measurement=5.54
molecule="O=C(c1cccc(Cl)c1F)N1CCN(Cc2cncc(Nc3cc[nH]n3)n2)CC1 [Example 50]" recorded_measurement=5.27
molecule="O=C(c1cccc(Cl)c1F)N1CCN(Cc2cc(Cn3nccn3)cc(Nc3nccs3)n2)CC1 [Example 91, trifluoroacetate]" recorded_measurement=5.92
molecule="O=C(c1cccc(Cl)c1F)N1CCN(Cc2cccc(Nc3ncc(F)s3)n2)CC1 [Example 112]" recorded_measurement=6.64
molecule="O=C(c1cccc(Br)c1F)N1CCN(Cc2cncc(Nc3cc[nH]n3)n2)CC1 [Example 49, trifluoroacetate]" recorded_measurement=5.36
molecule="N#Cc1cccc(C(=O)N2CCN(Cc3cccc(Nc4ncc(Cl)s4)n3)CC2)c1 [Example 71]" recorded_measurement=6.43
molecule="CNC(=O)c1cc(CN2CCN(C(=O)c3cccc(Cl)c3F)CC2)nc(Nc2nccs2)c1 [Example 85, trifluoroacetate]" recorded_measurement=6.21
molecule="Cc1nc(C(=O)N2CCN(Cc3cccc(Nc4ncc(Cl)s4)n3)CC2)cs1 [Example 68]" recorded_measurement=6.17
molecule="CS(=O)(=O)Cc1cc(CN2CCN(C(=O)c3cccc(Cl)c3F)CC2)nc(Nc2nccs2)c1 [Example 93]" recorded_measurement=6.60
molecule="O=C(Cc1ccc(Cl)c(Cl)c1)N1CCN(Cc2cccc(Nc3cc[nH]n3)n2)CC1 [Example 21, trifluoroacetate]" recorded_measurement=5.17
molecule="O=C(c1cccc(Cl)c1F)N1CCCN(Cc2cccc(Nc3nccs3)n2)CC1 [Example 63]" recorded_measurement=6.24
molecule="O=C(c1cccc(F)c1F)N1CCN(Cc2cc(N3CCOCC3)cc(Nc3nccs3)n2)CC1 [Example 103]" recorded_measurement=6.60
molecule="O=C(c1cccc(Cl)c1F)N1CCN(Cc2cc(Cn3ccnn3)cc(Nc3nccs3)n2)CC1 [Example 90, trifluoroacetate]" recorded_measurement=6.07
molecule="O=C(O)C(F)(F)F.O=C(c1cccc(C(F)(F)F)c1F)N1CCN(Cc2cccc(Nc3cc[nH]n3)n2)CC1 [Example 19, trifluoroacetate]" recorded_measurement=6.28
molecule="Cn1nnc(-c2cc(CN3CCN(C(=O)c4cccc(Cl)c4F)CC3)nc(Nc3nccs3)c2)n1 [Example 107]" recorded_measurement=6.72

---

- tested on: Aurora A (Homo sapiens, UniProt O14965)
- Sequence (O14965 1-403): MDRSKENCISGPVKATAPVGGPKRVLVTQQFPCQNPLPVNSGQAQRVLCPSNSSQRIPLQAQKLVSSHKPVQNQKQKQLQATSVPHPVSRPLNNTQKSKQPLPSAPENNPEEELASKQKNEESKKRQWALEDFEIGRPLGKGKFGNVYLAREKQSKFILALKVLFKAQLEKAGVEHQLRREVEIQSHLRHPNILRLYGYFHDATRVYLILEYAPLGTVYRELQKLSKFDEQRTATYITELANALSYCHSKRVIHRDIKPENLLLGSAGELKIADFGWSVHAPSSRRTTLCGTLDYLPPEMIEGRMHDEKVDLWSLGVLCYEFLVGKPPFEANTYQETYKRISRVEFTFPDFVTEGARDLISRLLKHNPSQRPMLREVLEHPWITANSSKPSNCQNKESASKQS
pIC50: −log10 of the molar value. Structures can show the parent of a compound that is named as a salt.
Outcome: Met for pIC50 of at least 9; Not met for anything lower.

compound="Cc1cc(Nc2cccc(CN3C[C@@H]4C[C@H]3CN4C(=O)c3cccc(Cl)c3F)n2)n[nH]1 [Example 27]" answer_label="Not met"
compound="O=C(c1cccc(Br)c1)N1CCN(Cc2cccc(Nc3ncns3)n2)CC1 [Example 38]" answer_label="Not met"
compound="COC(=O)c1cc(CN2CCN(C(=O)c3cccc(Cl)c3F)CC2)nc(Nc2nccs2)c1 [Example 82]" answer_label=Met
compound="O=C(Cc1ccc(Cl)cc1)N1CCN(Cc2cccc(Nc3ncc(Cl)s3)n2)CC1.O=C(O)C(F)(F)F [Example 77, trifluoroacetate]" answer_label="Not met"
compound="Cc1nc(-c2cc(CN3CCN(C(=O)c4cccc(Cl)c4F)CC3)nc(Nc3nccs3)c2)no1 [Example 109]" answer_label=Met
compound="Cc1cccc(C(=O)N2CCN(Cc3cccc(Nc4nccs4)n3)CC2)c1F [Example 8]" answer_label="Not met"
compound="O=C(Cc1ccc(Cl)c(Cl)c1)N1CCN(Cc2cccc(Nc3cc[nH]n3)n2)CC1 [Example 21, trifluoroacetate]" answer_label="Not met"
compound="O=C(c1cccc(Cl)c1F)N1CCN(Cc2cccc(Nc3ncc(Cl)s3)n2)CC1 [Example 75]" answer_label=Met
compound="O=C(c1cccc(Cl)c1F)N1CCN(Cc2cc(Br)cc(Nc3nccs3)n2)CC1 [Example 81]" answer_label=Met
compound="O=C(O)C(F)(F)F.O=C(c1cccc(Cl)c1Cl)N1CCN(Cc2cccc(Nc3ncns3)n2)CC1 [Example 36, trifluoroacetate]" answer_label="Not met"
compound="N#Cc1ccccc1C(=O)N1CCN(Cc2cccc(Nc3ncc(Cl)s3)n2)CC1 [Example 70]" answer_label="Not met"
compound="CS(=O)(=O)Cc1cc(CN2CCN(C(=O)c3cccc(Cl)c3F)CC2)nc(Nc2nccs2)c1 [Example 93]" answer_label=Met
compound="Cc1nc(C(=O)N2CCN(Cc3cccc(Nc4ncc(Cl)s4)n3)CC2)cs1 [Example 68]" answer_label="Not met"
compound="O=C(c1cccc(Cl)c1F)N1C[C@@H]2C[C@H]1CN2Cc1cccc(Nc2cc[nH]n2)n1 [Example 23]" answer_label="Not met"

All figures here come from patent US20080027042A1.
